tested on: HCV replicon; experiment: Replicon based assay of HCV replication inhibition (NPT ELISA); type: cell-based, Hepatitis C virus; details: Hepatitis C virus, replicon based assay of HCV replication inhibition; Table IV; read-out: Activity
Assay endpoint: EC50

CCCCCCC#Cc1ccc(Nc2nc(-c3cnc(OC)nc3)cs2)cc1C(F)(F)F
< 1000 nM
CC(C)(C)c1cccc(Nc2nc(-c3cccnc3)cs2)c1
> 10000 nM
CCCCCCCCOc1ccc(Nc2nc(-c3ccsc3Cl)cs2)cc1C(F)(F)F
< 1000 nM
NC(=O)c1cccc(Nc2nc(-c3cccnc3)cs2)c1
> 10000 nM

Quick one: EC50 for FC(F)(F)c1cccc(-c2csc(Nc3ccc(OCC4CCCCC4)c(C(F)(F)F)c3)n2)c1 ?
< 1000 nM

Quick one: EC50 for CCCCCCCCOc1ccc(Nc2nc(C#N)c(N)s2)cc1C(F)(F)F ?
< 1000 nM

Quick one: EC50 for Fc1cc(Nc2nc(-c3cccnc3)cs2)ccc1OCCCc1ccccc1 ?
< 1000 nM

Quick one: EC50 for FC(F)(F)c1cc(Nc2nc(-c3cccnc3)cs2)ccc1OCCCc1ccco1 ?
< 1000 nM

Quick one: EC50 for COc1ncc(-c2csc(Nc3ccc(OCCCc4ccccc4)c(C(F)(F)F)c3)n2)cn1 ?
< 1000 nM

Quick one: EC50 for CCCCCCCCOc1ccc(Nc2nc(C(=O)CNc3nccs3)cs2)cc1C(F)(F)F ?
< 1000 nM

Quick one: EC50 for CCN(CC)C(=O)c1ccc(Nc2nc(-c3cccnc3)cs2)cc1 ?
> 10000 nM

Quick one: EC50 for c1cc(Nc2nc(-c3cccnc3)cs2)cc(-c2cocn2)c1 ?
> 10000 nM

Quick one: EC50 for CC(C)(C)c1cc(Nc2nc(-c3cccnc3)cs2)cc(C(C)(C)C)c1 ?
< 1000 nM
